- tgt: KRAS-G12D (Homo sapiens, UniProt P01116, G12D)
- Construct: endogenous in cells; host or cells: A-427 (ATCC), AGS, AsPc-1, Panc 04.03
- Sequence (P01116 1-188 isoform P01116-2 G12D): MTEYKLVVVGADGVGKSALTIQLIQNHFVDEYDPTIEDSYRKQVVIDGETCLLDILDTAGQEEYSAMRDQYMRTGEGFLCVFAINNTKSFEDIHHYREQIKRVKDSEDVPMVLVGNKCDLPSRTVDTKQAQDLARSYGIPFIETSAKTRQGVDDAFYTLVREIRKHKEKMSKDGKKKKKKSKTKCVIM
- assay: KRAS-G12D degradation assay (Western Blot), A-427 cells
- Assay type: cell-based
- assay_context: A-427; A427 cells, 24 h; numeric values
measured_parameter: Dmax
Enter the number, and then the unit.

INSERT INTO results (molecule, tgt, meas_value) VALUES
  ('[2H]C([2H])(C1CCC2(CC1)CCN(C(=O)c1ccc(C)c(N3CCC(=O)NC3=O)c1)CC2)N1CCN(CC2(COc3nc(N4CC5CCC(C4)N5)c4ccc(-c5cc(O)cc6ccc(F)c(C#C)c56)c(F)c4n3)CC2)CC1', 'KRAS-G12D (Homo sapiens, UniProt P01116, G12D)', '94.7%'),
  ('C#Cc1c(F)ccc2cc(O)cc(-c3ccc4c(N5CC6CCC(C5)N6)nc(OCC5(CN6CCN(CC7CCC8(CC7)CCN(C(=O)c7ccc(OC)c(N9CCC(=O)NC9=O)c7)CC8)CC6)CC5)nc4c3F)c12', 'KRAS-G12D (Homo sapiens, UniProt P01116, G12D)', '95%'),
  ('CCc1cccc2cc(O)cc(-c3ncc4c(N5CCC6CCC(C5)N6)nc(OCC5(CN6CCN(CC7CCC8(CC7)CCN(C(=O)c7ccc(OC)c(N9CCC(=O)NC9=O)c7)CC8)CC6)CC5)nc4c3F)c12 (centres unmarked)', 'KRAS-G12D (Homo sapiens, UniProt P01116, G12D)', '89.5%'),
  ('CCc1cccc2cc(O)cc(-c3ccc4c(N5CC6CCC(C5)N6)nc(OCC5(CN6CCN(CC7CCC8(CC7)CCN(C(=O)c7ccc(Cl)c(N9CCC(=O)NC9=O)c7)CC8)CC6)CC5)nc4c3F)c12', 'KRAS-G12D (Homo sapiens, UniProt P01116, G12D)', '94.8%');

Okay, now this molecule:
# input Provide one value: measured Dmax of "C#Cc1cccc2cc(O)cc(-c3ccc4c(N5CC6CCC(C5)N6)nc(OCC5(CN6CCN(CC7CCC8(CC7)CCN(C(=O)c7ccc(C)c(N9CCC(=O)NC9=O)c7)CC8)CC6)CC5)nc4c3F)c12"
# output 94.5%
